// provenance: PubChem BioAssay (NCI)

test system: NCI-H226 lung; test: NCI tumour cell line growth inhibition, 48 h; in the data active = GI50 below about 0.43 µM; inactive = the rest
The reply should be one of these categories: T = active, F = inactive

Returns: the outcome recorded for CC12CCC=CC1CCC1C2CCC2(C)C(c3ccc(=O)oc3)CCC12O (stereo unspecified) in this assay. T

Record: `N#Cc1ncc(/N=C/c2ccc(N(CCCl)CCCl)cc2)s1` F

Record: `O=C(CCN1CCCC1)Nc1ccc2c(NCc3ccc(F)cc3)c3ccccc3nc2c1` F

Record: `N#CSc1ncnc2nc[nH]c12` F

Record: `CCn1c(-c2nonc2N)nc2cncc(C(=O)N3CCNCC3)c21` F

Record: `O=C(CCl)c1ccc([N+](=O)[O-])o1` F

---

test system: MOLT-4 leukemia; experiment: NCI tumour cell line growth inhibition, 48 h
*1 amine or outer side, *2 acyl side, *3 side chain or, on linkers, in order; H or OH if unused. Where a SMILES comes first, the peptide text is derived from it. Bridges are numbered along the chain shown (N, C = ends). [ ]: non-standard residue; d: D form. The star is where a group is joined. X38 = CC[C@H](C)[C@@H](N[*:1])[C@@H](O)CC(=O)[*:2]; NMeY = CN[C@@H](Cc1ccc(O)cc1)C(=O)O; dNMeL = CN[C@H](CC(C)C)C(=O)O; Hiv = CC(C)[C@H](O)C(=O)O; Pyruvoyl = CC(=O)C(=O)*
recorded metric: TGI

Field request: TGI | item: `CCOC(=O)c1ccc(C(=O)OCC)n1-c1cc2cc(c1)CSCc1cc(cc(-n3c(C(=O)OCC)ccc3C(=O)OCC)c1)CSC2` > 10 µM

Record: `Nc1ncnc2sc(=S)c3c(c12)CCC3` 69.7 µM

Record: `COc1cc2c(cc1OC)-c1[nH]c3ccc(C#N)cc3c1CC(=O)N2` > 100 µM

Record: `CCC[CH2][Sn]([CH2]CCC)([O]C(C)=O)[O]C(C)=O` 4.59 µM

Record: `Cc1nc2sc(CCl)nn2c(=O)c1Cl` 26.7 µM

Record: `O=S(=O)([O-])[O-].[Fe+2].c1ccc(/C(=N\Nc2ccccn2)c2ccccn2)cc1` 6.13 µM

Record: COc1ccc(C2c3cc4c(cc3C(O)C3CCC(=O)N23)OCO4)cc1 (centres undefined) > 100 µM

Record: Nc1ccn(C2CC(O)C(COP(O)(=S)OC3CC(n4ccc(N)nc4=O)OC3CO)O2)c(=O)n1 (centres undefined) > 100 µM

Record: CC[C@H](C)[C@H]1NC(=O)[C@@H](NC(=O)[C@@H](CC(C)C)N(C)C(=O)[C@@H]2CCCN2C(=O)C(C)=O)[C@@H](C)OC(=O)[C@H](Cc2ccc(OC)cc2)N(C)C(=O)[C@@H]2CCCN2C(=O)[C@H](CC(C)C)NC(=O)[C@H](C(C)C)OC(=O)C[C@@H]1O (Pyruvoyl-P[dNMeL]T[X38][Hiv]LP[NMeY](Me); ester 3-C) 0.0373 µM

Record: `COc1cc2nc(Cl)nc(Nc3cccc(C(=O)/C=C/c4ccccc4)c3)c2cc1OC` > 100 µM

Record: `CN(C)c1ccc2c(NCCCCCCNc3ccnc4cc(N(C)C)ccc34)ccnc2c1` > 100 µM

Record: O=C1CC(=O)NC(=NN2C(=O)CSC2c2ccc(Cl)c(Cl)c2)N1 (centres undefined) 54.3 µM

Record: `CC(=O)/C(=C\c1ccco1)C(=O)Nc1ccccc1` > 100 µM

Record: Cc1ccc(NCC2CC/C(=C\c3ccc(Cl)cc3)C2=O)cc1 (centres undefined) > 32.4 µM

Record: `CCOC(=O)CSc1ccnc(=O)[nH]1` > 100 µM

Record: `Fc1ccc(-c2nc3n(c2-c2ccncc2)CCS3)cc1` > 25 µM

Record: `O=C(O)C(=C\c1ccc2c(c1)OCO2)/C(=C/c1ccc2c(c1)OCO2)C(=O)O` > 100 µM

Record: `CCOC(=O)NC(C(F)(F)F)(C(F)(F)F)P(=O)(OC(C)C)OC(C)C` > 100 µM

Record: `CCOC(=O)Cc1c[nH]c(=S)[nH]c1=O` > 100 µM

Record: `CS(=O)(=O)CC1=Nc2nnc(CCCCCCCc3nnc4n3C(=O)C(CS(C)(=O)=O)=N4)n2C1=O` > 100 µM

Record: `O=P(O)(OCC(O)O)OCC(O)O` > 100 µM

Record: O=C(O)C1CC2C3CCC2C1C3=O (centres undefined) > 100 µM

Record: `CSc1nnc(CCSc2ccnc3c(C(F)(F)F)cccc23)o1` > 100 µM

Record: `O=C(c1ccc(Cl)cc1Cl)N(C(=O)N1CCC(c2ccccc2)CC1)c1ccccc1` 75 µM

Record: C/C(=N\N)C(CN(C)C)C(c1ccccc1)c1c(O)c2ccccc2oc1=O (centres undefined) > 100 µM

Record: O=C1CSC2(CC(/C=C/c3ccccc3O)=NN2c2cccc(S(=O)(=O)O)c2)N1c1nc2ccccc2s1 (centres undefined) 82.9 µM

Record: OCC1OC(n2ccc3c2ncn2ncnc32)C(O)C1O (centres undefined) > 43.1 µM

Record: `CCCCc1ccc(Nc2nc(Cl)c3c(ncn3COCCOC(C)=O)n2)cc1` 42.5 µM

Record: `CCc1nnc(CC)n1NCCCC(=O)O` > 100 µM

Record: `c1ccc(Nc2nnc(CSc3nc(-c4ccccc4)c(-c4ccccc4)[nH]3)s2)cc1` 29.8 µM

Record: CC(C)=CCCC1(C)C=Cc2c(c(C)cc3c2[nH]c2cc(O)ccc23)O1 (centres undefined) > 25 µM

Record: O=C(CC1Sc2ccccc2NC1=O)Nc1cc(Cl)ccc1Cl (centres undefined) > 100 µM

Record: COc1ccccc1[N-]C(C1=C([O-])c2ccccc2C1=O)c1ccccc1.COc1ccccc1[N-]C(C1=C([O-])c2ccccc2C1=O)c1ccccc1.[Cu+2] (centres undefined) > 100 µM

Record: `NC(=O)[C@H]1CCN(c2ncnc(N)c2F)C[C@@H]1N1CCC[C@@H](Nc2cc(Cl)cc(C(F)(F)F)c2)C1=O` 65.9 µM

Record: `CC(C)(C(=O)NN)c1ccccc1` > 100 µM

Record: `C=C(C)[C@@H]1CC[C@]2(C(=O)NCCCN)CC[C@]3(C)[C@H](CC[C@@H]4[C@@]5(C)CC[C@H](O)C(C)(C)[C@@H]5CC[C@]43C)[C@@H]12` 52.8 µM

Record: `Cc1c2cnccc2c(C)c2c1[nH]c1ccc(O)cc12` > 10 µM

Record: `CCOC(=O)/C(N=Nc1ccc(-n2c(C)nc3ccccc3c2=O)cc1)=C(/C)O` 64.1 µM

Record: `COc1ccc(/C=C2/C(C)=NN(c3cccc(Cl)c3)/C2=N/c2nc3ccccc3s2)cc1` 63.8 µM
